measured on: furin, P09958
Sequence (P09958 whole entry): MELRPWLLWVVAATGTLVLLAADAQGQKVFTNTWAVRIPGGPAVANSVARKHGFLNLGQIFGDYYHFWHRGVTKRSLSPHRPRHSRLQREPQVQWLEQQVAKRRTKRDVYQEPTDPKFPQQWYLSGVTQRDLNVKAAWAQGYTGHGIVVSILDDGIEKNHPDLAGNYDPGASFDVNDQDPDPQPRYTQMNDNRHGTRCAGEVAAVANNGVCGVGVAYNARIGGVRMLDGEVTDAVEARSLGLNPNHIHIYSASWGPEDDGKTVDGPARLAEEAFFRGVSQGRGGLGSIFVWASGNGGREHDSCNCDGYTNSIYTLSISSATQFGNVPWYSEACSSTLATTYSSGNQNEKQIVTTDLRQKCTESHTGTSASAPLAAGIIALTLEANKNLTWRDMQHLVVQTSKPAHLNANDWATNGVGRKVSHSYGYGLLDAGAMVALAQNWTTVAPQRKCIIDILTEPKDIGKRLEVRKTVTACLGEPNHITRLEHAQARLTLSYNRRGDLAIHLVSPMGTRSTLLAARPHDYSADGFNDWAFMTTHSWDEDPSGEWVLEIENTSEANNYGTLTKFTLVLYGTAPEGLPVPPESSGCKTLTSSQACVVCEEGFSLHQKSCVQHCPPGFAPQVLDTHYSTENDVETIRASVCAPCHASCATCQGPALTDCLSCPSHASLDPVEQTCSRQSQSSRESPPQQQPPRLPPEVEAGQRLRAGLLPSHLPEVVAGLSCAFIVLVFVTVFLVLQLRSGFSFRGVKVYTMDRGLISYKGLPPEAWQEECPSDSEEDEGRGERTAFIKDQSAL
experiment description: furin cleavage Z-score vs untreated control; higher = more cleavage, active = 3.5 or more, inactive = 1 or less, 8 variable residues between constant flanks;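 note: purified furin at 1:10 enzyme:substrate in 50 mM HEPES pH 7.5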
measurement parameters: 30 min
The other results are listed elsewhere or left out. No count for the full screen is at hand.
Quick reference for furin cleavage Z-score among some sequences
Just the number, please, no unit attached.

INSERT INTO measurements (macromolecule_sequence, numeric_result) VALUES
  ('CASTPCSEHLAGNASASA [HC2532]', -0.509),
  ('CALLGPADGMAGNASASA [HC666]', -0.909),
  ('CAEYDLELITAGNASASA [HC1549]', -2.02),
  ('CARTRRSWVWAGNASASA [FS-2385]', 3.19);

Query :: Requested field: furin cleavage Z-score. Item: CAHTPCSAHLAGNASASA [HC2475]
Result :: -0.643

Query :: Given CADTEVVTSTAGNASASA [HC2298] , state its recorded furin cleavage Z-score.
Result :: -0.202

Query :: Look at this sequence and give its reported furin cleavage Z-score. CAPERRDVCWAGNASASA [FS-1677]
Result :: 0.841

Hey, just so you know, these numbers are from the supplement of paper PMC3545927.
